Measured EC50 by item
target: Arabidopsis thaliana SHMT; assay: SHMT activity assay (ED50 SHMT), coupled with N5,N10-CH2-THF dehydrogenase, NADH at 340 nm; format: biochemical; conditions: Table 2; values given as upper bounds
Measured endpoint: EC50

# Compound, Measured endpoint, Measured
records = [
    ("Cc1n[nH]c2c1C(c1ccc(Cl)cc1)(C1CC1)C(C#N)=C(N)O2 (stereo not shown) [Compound 2.46.]", "EC50", "< 1000 nM"),
    ("Cc1n[nH]c2c1C(c1ccc(C(=O)O)c(Cl)c1)(C1CCC1)C(C#N)=C(N)O2 (stereo not shown) [Compound 2.594]", "EC50", "< 1000 nM"),
    ("CCC1(c2ccc(F)c(Br)c2)C(C#N)=C(N)Oc2[nH]nc(C)c21 (racemic) [Compound 2.13.]", "EC50", "< 100 nM"),
    ("Cc1n[nH]c2c1C(c1cc(C#N)cc(N(C)C(=O)CCC(=O)O)c1)(C1CCC1)C(C#N)=C(N)O2 (stereo not shown) [Compound 2.632]", "EC50", "< 10 nM"),
    ("Cc1n[nH]c2c1C(c1cc(C#N)cc(-c3cc(C(=O)O)cc(C(F)(F)F)c3)c1)(C1CCC1)C(C#N)=C(N)O2 (stereo not shown) [Compound 2.644]", "EC50", "< 10 nM"),
    ("CCC1(c2cccc(C(F)(F)F)c2)C(C#N)=C(N)Oc2[nH]nc(C3CC3)c21 (stereo not shown) [Compound 2.119.]", "EC50", "< 1000 nM"),
    ("Cc1n[nH]c2c1C(c1cccc([N+](=O)[O-])c1)(C(F)(F)F)C(C#N)=C(N)O2 (stereo not shown) [Compound 2.68.]", "EC50", "< 1000 nM"),
]
